- Target system: aldose reductase (Bos taurus, UniProt P16116)
- Construct: preparation of the enzyme from bovine lens; from tissue; host or cells: bovine lens
- Assay info: in vitro inhibition of aldose reductase (enzyme from bovine lens, modified Hayman and Kinoshita procedure)
- Format: biochemical
- Setup conditions: read-out: % inhibition in vitro
Mark true (1) for reported inhibition at 10 µM of 90% or greater; mark false (0) for anything smaller.

Answered examples (4):
Molecule | Target system | Group label
CN(C)c1cccc2c(S(=O)(=O)N3CC(=O)NC3=O)cccc12 [Example 8] | aldose reductase (Bos taurus, UniProt P16116) | true (1)
COc1ccc2c(S(=O)(=O)N3CC(=O)NC3=S)cccc2c1C(F)(F)F [Example 5] | aldose reductase (Bos taurus, UniProt P16116) | false (0)
COc1ccc2c(S(=O)(=O)N3CC(=O)NC3=O)cccc2c1C(F)(F)F [Example 6] | aldose reductase (Bos taurus, UniProt P16116) | false (0)
O=C1CN(S(=O)(=O)c2cccc3ccc(Br)cc23)C(=O)N1 [Example 14] | aldose reductase (Bos taurus, UniProt P16116) | true (1)

# input Assess whether reported inhibition at 10 µM for O=C1CN(S(=O)(=O)c2cccc3ccc(Br)cc23)C(=S)N1 [Example 13] sits at 90% or higher.
# output false (0)

---

- Target system: aldose reductase (Bos taurus)
- Construct: preparation of the enzyme from bovine lens; from tissue; host or cells: bovine lens
- Assay info: in vitro inhibition of aldose reductase (enzyme from bovine lens, modified Hayman and Kinoshita procedure)
- Format: biochemical
- Setup conditions: 10^-6; read-out: % inhibition in vitro
Mark Y for reported inhibition at 1 µM of 70% or greater; mark N for anything smaller.

Answered examples (2):
Structure smiles | Group label
O=C1CN(S(=O)(=O)c2cccc3ccccc23)C(=O)N1 | N
O=C1CN(S(=O)(=O)c2cccc3ccc(Br)cc23)C(=S)N1 | N

Next compound, please.
# input Assess whether reported inhibition at 1 µM for `O=C1CN(S(=O)(=O)c2cccc3c(Cl)cccc23)C(=S)N1` sits at 70% or higher.
# output N

---

- Target system: aldose reductase (Rattus norvegicus)
- Construct: diminish the accumulation of dulcitol in the lenses, sciatic nerves and diaphragm of rats fed galactose; from tissue; host or cells: lens, sciatic nerve and diaphragm of living male Sprague-Dawley rats
- Assay info: lowering of dulcitol accumulation in vivo in lens, sciatic nerve and diaphragm of galactosemic rats
- Design: species or system rat (Sprague-Dawley)
- Setup conditions: diaphragm; 24 mg/kg/day in diet
Assignment: determine reported % lowering dulcitol accumulation in vivo, D for the given molecules.
Give bare numbers, in %.

// worked examples, % lowering dulcitol accumulation in vivo, D included
Molecule | Number
O=C1CN(S(=O)(=O)c2cccc3c(Br)cccc23)C(=S)N1 [Example 1] | 61
O=C1CN(S(=O)(=O)c2cccc3cc(Br)ccc23)C(=O)N1 [Example 12] | 0
O=C1CN(S(=O)(=O)c2cccc3c(I)cccc23)C(=O)N1 [Example 18] | 74.0

Here is the next item to consider.
# input Answer with the recorded % lowering dulcitol accumulation in vivo, D of O=C1CN(S(=O)(=O)c2ccc(Br)c3ccccc23)C(=O)N1 [Example 4] only.
# output 27

---

- Target system: aldose reductase (Bos taurus)
- Construct: preparation of the enzyme from bovine lens; from tissue; host or cells: bovine lens
- Assay info: in vitro inhibition of aldose reductase (enzyme from bovine lens, modified Hayman and Kinoshita procedure)
- Assay type: biochemical
- Setup conditions: 10^-5; read-out: % inhibition in vitro
Observable: inhibition at 10 µM (%)
Numbers only, in %.

// worked examples, inhibition at 10 µM included
Compound | Target system | inhibition at 10 µM, %
O=C1CN(S(=O)(=O)c2cccc3ccccc23)C(=S)N1 [Example 9] | aldose reductase (Bos taurus) | 17
O=C1CN(S(=O)(=O)c2cccc3c(Br)cccc23)C(=S)N1 [Example 1] | aldose reductase (Bos taurus) | 67

Could I get inhibition at 10 µM for every one of these entries?
1. O=C1CN(S(=O)(=O)c2cccc3c(Cl)cccc23)C(=S)N1 [Example 15]
2. O=C1CN(S(=O)(=O)c2cccc3c(I)cccc23)C(=S)N1 [Example 17]
3. O=C1CN(S(=O)(=O)c2cccc3cc(Br)ccc23)C(=S)N1 [Example 11]
4. O=C1CN(S(=O)(=O)c2cccc3c(Cl)cccc23)C(=O)N1 [Example 16]
5. O=C1CN(S(=O)(=O)c2ccc(Br)c3ccccc23)C(=O)N1 [Example 4]

# output
43
58
10
85
92

Could I get inhibition at 10 µM for every one of these entries?
1. O=C1CN(S(=O)(=O)c2ccc(Br)c3ccccc23)C(=S)N1 [Example 3]
2. O=C1CN(S(=O)(=O)c2cccc3ccccc23)C(=O)N1 [Example 10]

# output
1. 53
2. 89

---

- Target system: aldose reductase (Rattus norvegicus, UniProt P07943)
- Construct: diminish the accumulation of dulcitol in the lenses, sciatic nerves and diaphragm of rats fed galactose; from tissue; host or cells: lens, sciatic nerve and diaphragm of living male Sprague-Dawley rats
- Assay info: lowering of dulcitol accumulation in vivo in lens, sciatic nerve and diaphragm of galactosemic rats
- Set-up: species or system rat (Sprague-Dawley)
- Setup conditions: lens; 24 mg/kg/day in diet
Observable: % lowering dulcitol accumulation in vivo, L (%)
Answers are plain numbers, in %.

Structure smiles | Result units | Number
O=C1CN(S(=O)(=O)c2cccc3c(Br)cccc23)C(=S)N1 | % | 24
O=C1CN(S(=O)(=O)c2cccc3cc(Br)ccc23)C(=O)N1 | % | 0

# input Answer with the recorded % lowering dulcitol accumulation in vivo, L of `O=C1CN(S(=O)(=O)c2cccc3c(I)cccc23)C(=O)N1` only.
# output 33

---

- Target system: aldose reductase (Bos taurus)
- Construct: preparation of the enzyme from bovine lens; from tissue; host or cells: bovine lens
- Assay info: in vitro inhibition of aldose reductase (enzyme from bovine lens, modified Hayman and Kinoshita procedure)
- Assay type: biochemical
- Setup conditions: 10^-5; read-out: % inhibition in vitro
Assignment: determine reported inhibition at 10 µM for the given molecules.
Answers are plain numbers, in %.

// worked examples, inhibition at 10 µM included
Structure smiles | Number
CN(C)c1cccc2c(S(=O)(=O)N3CC(=O)NC3=S)cccc12 | 58
O=C1CN(S(=O)(=O)c2ccc3c(Br)cccc3c2)C(=S)N1 | 13
O=C1CN(S(=O)(=O)c2cccc3c(Br)cccc23)C(=O)N1 | 93

Could I get inhibition at 10 µM for every one of these entries?
1. O=C1CN(S(=O)(=O)c2cccc3cc(Br)ccc23)C(=O)N1
2. O=C1CN(S(=O)(=O)c2ccc3c(Br)cccc3c2)C(=O)N1

# output
1: 89; 2: 89

---

Assignment: determine reported inhibition at 1 µM for the given compounds.
- Target system: aldose reductase (Bos taurus)
- Construct: preparation of the enzyme from bovine lens; from tissue; host or cells: bovine lens
- Assay info: in vitro inhibition of aldose reductase (enzyme from bovine lens, modified Hayman and Kinoshita procedure)
- Format: biochemical
- Setup conditions: 10^-6; read-out: % inhibition in vitro
- Text: In the present case the procedure of Hayman and Kinoshita was modified in that the final chromatography step was omitted in the preparation of the enzyme from bovine lens.
Answers are plain numbers, in %.

Compound | inhibition at 1 µM (%)
O=C1CN(S(=O)(=O)c2cccc3cc(Br)ccc23)C(=S)N1 [Example 11] | 9

Could I get inhibition at 1 µM for every one of these entries?
1. O=C1CN(S(=O)(=O)c2ccc(Br)c3ccccc23)C(=O)N1 [Example 4]
2. O=C1CN(S(=O)(=O)c2ccc3c(Br)cccc3c2)C(=S)N1 [Example 19]
3. CN(C)c1cccc2c(S(=O)(=O)N3CC(=O)NC3=S)cccc12 [Example 7]
4. O=C1CN(S(=O)(=O)c2cccc3c(I)cccc23)C(=S)N1 [Example 17]
5. O=C1CN(S(=O)(=O)c2ccc3c(Br)cccc3c2)C(=O)N1 [Example 20]
6. CN(C)c1cccc2c(S(=O)(=O)N3CC(=O)NC3=O)cccc12 [Example 8]

# output
1. 81
2. 9
3. 12
4. 24
5. 77
6. 83

---

- Target system: aldose reductase (Bos taurus)
- Construct: preparation of the enzyme from bovine lens; from tissue; host or cells: bovine lens
- Assay info: in vitro inhibition of aldose reductase (enzyme from bovine lens, modified Hayman and Kinoshita procedure)
- Type: biochemical
- Setup conditions: 10^-6; read-out: % inhibition in vitro
Mark satisfied for reported inhibition at 1 µM of 70% or greater; mark not satisfied for anything smaller.

Answered examples (4):
Compound | Target system | Group label
O=C1CN(S(=O)(=O)c2ccc(Br)c3ccccc23)C(=S)N1 [Example 3] | aldose reductase (Bos taurus) | not satisfied
O=C1CN(S(=O)(=O)c2cccc3c(Br)cccc23)C(=S)N1 [Example 1] | aldose reductase (Bos taurus) | not satisfied
COc1ccc2c(S(=O)(=O)N3CC(=O)NC3=O)cccc2c1C(F)(F)F [Example 6] | aldose reductase (Bos taurus) | satisfied
COc1ccc2c(S(=O)(=O)N3CC(=O)NC3=S)cccc2c1C(F)(F)F [Example 5] | aldose reductase (Bos taurus) | not satisfied

Next compound, please.
# input Assess whether reported inhibition at 1 µM for O=C1CN(S(=O)(=O)c2cccc3c(Br)cccc23)C(=O)N1 [Example 2] sits at 70% or higher.
# output satisfied
